Give combination Emax for every item shown.
Tested on: L-1236 (Hodgkin's Lymphoma)
ASSAY_PROTOCOL: combination Emax (second highest fraction inhibited in the dose matrix, 72 h); higher = more inhibition; extreme values may be limits of the assay

Requested read-out: combination Emax. Entry: CN(CCO)CC[C@H](CSc1ccccc1)Nc1ccc(S(=O)(=O)NC(=O)c2ccc(N3CCC([C@@H](O)c4ccccc4-c4ccc(Cl)cc4)CC3)cc2)cc1S(=O)(=O)C(F)(F)F [AZD4320] + Nc1ccn([C@@H]2O[C@H](CO)[C@@H](O)C2(F)F)c(=O)n1 [Gemcitabine] (first compound max 1 µM, 7x7, partner max 0.3 µM) 1

Need combination Emax of Cn1cnc2c(F)c(Nc3ccc(Br)cc3Cl)c(C(=O)NOCCO)cc21 [Selumetinib] + CCN(CCO)CCCOc1ccc2c(Nc3cc(CC(=O)Nc4cccc(F)c4)[nH]n3)ncnc2c1 [AZD2811] (first compound max 10 µM, 7x7, partner max 1 µM) , thanks. 0.289

Recorded combination Emax for Cc1c2c(nn1C)CSCc1cc(n(C)n1)CSc1cc(c3ccccc3c1)OCCCc1c(C(=O)O)n(C)c3c-2c(Cl)ccc13 [AZD5991] + C=CCn1c(=O)c2cnc(Nc3ccc(N4CCN(C)CC4)cc3)nc2n1-c1cccc(C(C)(C)O)n1 [AZD1775] (first compound max 1 µM, partner max 1 µM) , please? 0.824

----------
System: SU-DHL-10 (B-Cell Non-Hodgkin's Lymphoma)
ASSAY_PROTOCOL: combination Emax (second highest fraction inhibited in the dose matrix, 72 h); higher = more inhibition; extreme values may be limits of the assay
MEASUREMENT_NAME: combination Emax
Write the number on its own, no unit after it.

Name the recorded combination Emax for CN(CCO)CC[C@H](CSc1ccccc1)Nc1ccc(S(=O)(=O)NC(=O)c2ccc(N3CCC([C@@H](O)c4ccccc4-c4ccc(Cl)cc4)CC3)cc2)cc1S(=O)(=O)C(F)(F)F [AZD4320] + C[C@@H](Nc1cc(F)cc(F)c1)c1cc(C(=O)N(C)C)cc2c(=O)cc(N3CCOCC3)oc12 [AZD8186] (first compound max 1 µM, 7x7, partner max 3 µM) . 0.81

Bench note: what combination Emax did CN(C)CCCOc1ccc(-c2ccc3ncc4c(c3c2)n(C2CCOCC2)c(=O)n4C)cn1 [AZD0156] + C[C@@H]1COCCN1C2=NC(=NC(=C2)C3(CC3)[S@](=N)(=O)C)C4=C5C=CNC5=NC=C4 [AZD6738] (first compound max 1 µM, 7x7, partner max 10 µM) show? 0.979

For the molecule shown here, COc1cccc(OCCCN)c1-c1cc(Nc2cnc(C#N)cn2)n[nH]1 [Prexasertib] + CCc1c2c(nc3ccc(O)cc13)-c1cc3c(c(=O)n1C2)COC(=O)[C@]3(O)CC [SN-38] (first compound max 1 µM, 7x7, partner max 0.3 µM) , give the reported combination Emax. 1

Requested read-out: combination Emax. Entry: Cc1c2c(nn1C)CSCc1cc(n(C)n1)CSc1cc(c3ccccc3c1)OCCCc1c(C(=O)O)n(C)c3c-2c(Cl)ccc13 [AZD5991] + C[C@@H](Nc1cc(F)cc(F)c1)c1cc(C(=O)N(C)C)cc2c(=O)cc(N3CCOCC3)oc12 [AZD8186] (first compound max 1 µM, 7x7, partner max 3 µM) 1

Recorded combination Emax for Cc1cc2ncnn2cc1Nc1ncc2c(n1)n(C1CCOCC1)c(=O)n2C [AZD7648] + C=CCn1c(=O)c2cnc(Nc3ccc(N4CCN(C)CC4)cc3)nc2n1-c1cccc(C(C)(C)O)n1 [AZD1775] (first compound max 10 µM, partner max 1 µM) , please? 0.978

Please report the recorded combination Emax for CCN(CCO)CCCOc1ccc2c(Nc3cc(CC(=O)Nc4cccc(F)c4)[nH]n3)ncnc2c1 [AZD2811] + O=C(c1cc(Cc2n[nH]c(=O)c3ccccc23)ccc1F)N1CCN(C(=O)C2CC2)CC1 [Olaparib] (first compound max 1 µM, 7x7, partner max 10 µM) . 0.745

Item COc1nnc2ccc(N3CCC(c4ccc(OCCN5CCN(C)C(=O)[C@H]5C)cc4)CC3)nn12 [AZD5153] + CCN(CCO)CCCOc1ccc2c(Nc3cc(CC(=O)Nc4cccc(F)c4)[nH]n3)ncnc2c1 [AZD2811] (first compound max 1 µM, 7x7, partner max 1 µM) has what recorded combination Emax? 1
